Reported HLM (% Qh) by item:
# runDescription: human liver microsome (HLM) metabolic stability assay
# Format: in vitro ADME
# conditionLabel: human liver microsomes; % hepatic blood flow calculated from t1/2
measuredParameter: HLM (% Qh)

CCOc1c(C(=O)O)cnn1-c1cccc(-c2cccc(C)c2OCc2ccc3c(c2C)CCN(C2CCOCC2)CC3)n1    26 % Qh
Cc1cccc(-c2cccc(-n3ncc(C(=O)O)c3OC(C)C)n2)c1OCc1ccc2c(c1)CCN([C@H]1CCCOC1)C2    25 % Qh
COc1c(C(=O)O)cnn1-c1cccc(-c2cccc(C)c2OCc2cc(C)c3c(c2)CCN(C2CCOC2)C3)n1 (centres unmarked)    <24 % Qh
CCOc1c(C(=O)O)cnn1-c1cccc(-c2cccc(C)c2OCc2ccc3c(c2C)CCN(C[C@@H]2CCCOC2)C3)n1    <24 % Qh
COc1c(C(=O)O)cnn1-c1cccc(-c2cccc(C)c2OCc2ccc3c(c2)C(C)(C)CN(CC2COCCO2)C3)n1 (centres unmarked)    89 % Qh
COc1c(C(=O)O)cnn1-c1cccc(-c2cc(F)cc(F)c2OCc2ccc3c(c2)CCN(C2COC2)C3)n1    <24 % Qh
COc1c(C(=O)O)cnn1-c1cccc(-c2cccc(C)c2OCc2ccc3c(c2)CCN(CC2COCCO2)C3)n1 (centres unmarked)    <24 % Qh
COc1c(C(=O)O)cnn1-c1cccc(-c2cc(C)ccc2OCc2ccc3c(c2C)CCN(C2CCOCC2)C3)n1    <24 % Qh
COc1c(C(=O)O)cnn1-c1cccc(-c2cccc(C)c2OCc2ccc3c(c2)CCN(C(C)C)C3)n1    <24 % Qh
CCOc1c(C(=O)O)cnn1-c1cccc(-c2cccc(C)c2OCc2ccc3c(c2)CCN([C@H]2CCOC2)C3)n1    <24 % Qh
COc1c(C(=O)O)cnn1-c1cccc(-c2cccc(C)c2OCc2ccc3c(c2C)CCN(C[C@@H]2CCCCO2)C3)n1    <24 % Qh
CCOc1c(C(=O)O)cnn1-c1cccc(-c2cccc(Cl)c2OCc2ccc3c(c2)CCNC3)n1    40 % Qh
COc1ccc(OCc2ccc3c(c2C)CCN(C2CCOCC2)C3)c(-c2cccc(-n3ncc(C(=O)O)c3OC)n2)c1    <24 % Qh
COc1c(C(=O)O)cnn1-c1cccc(-c2cccc(C)c2OCc2cc(C)c3c(c2)CCN(C2CCOCC2)C3)n1    <24 % Qh

* * *

# runDescription: Assessment of solubility (McIlvaine buffers, 24 h shake, UPLC-UV)
# Assay type: physicochemical
# conditionLabel: pH 6.8, aqueous buffer, kinetic from dmso stock
Reported solubility at 24 h by item:
measuredParameter: solubility at 24 h (µg/mL)

CCOc1c(C(=O)O)cnn1-c1cccc(-c2cccc(C)c2OCc2ccc3c(c2C)CCN([C@@H]2CCOC2)C3)n1    78
COc1c(C(=O)O)cnn1-c1cccc(-c2cccc(C)c2OCc2ccc3c(c2C)CCN([C@@H]2CCOC2)C3)n1    73
COc1c(C(=O)O)cnn1-c1cccc(-c2cccc(C)c2OCc2ccc3c(c2)CCN(C2C4CCOC4C2(C)C)C3)n1 (centres unmarked)    90
COc1ccc(OCc2ccc3c(c2C)CCN(C2CCOCC2)C3)c(-c2cccc(-n3ncc(C(=O)O)c3OC)n2)c1    81
COc1c(C(=O)O)cnn1-c1cccc(-c2cccc(C(F)(F)F)c2OCc2ccc3c(c2C)CCN(C2CCOCC2)C3)n1    89
CCOc1c(C(=O)O)cnn1-c1cccc(-c2cccc(C)c2OCc2cc(C)c3c(c2)CCN(CC2(C)COC2)C3)n1    73
CCOc1c(C(=O)O)cnn1-c1cccc(-c2cccc(C)c2OCc2ccc3c(c2C)CCN(C[C@H]2COCCO2)CC3)n1    75
COc1c(C(=O)O)cnn1-c1cccc(-c2cccc(C)c2OCc2ccc3c(c2C)CCN(C[C@@H]2CCOC2)C3)n1    80
CCOc1c(C(=O)O)cnn1-c1cccc(-c2cccc(C)c2OCc2ccc3c(c2C)CCN(C[C@H]2CCCOC2)C3)n1    65
COc1c(C(=O)O)cnn1-c1cccc(-c2cccc(C)c2OCc2ccc3c(c2)CCN(C2CC4CCC(C2)O4)C3)n1 (centres unmarked)    90
CCOc1c(C(=O)O)cnn1-c1cccc(-c2cccc(Cl)c2OCc2ccc3c(c2)CCN(C2CCOCC2)C3)n1    75
CCOc1c(C(=O)O)cnn1-c1cccc(-c2cccc(C)c2OCc2ccc3c(c2C)CCN([C@@H]2CCOC2)CC3)n1    77
CCOc1c(C(=O)O)cnn1-c1cccc(-c2cccc(C)c2OCc2ccc3c(c2)CCN(C2CCOCC2C)C3)n1 (centres unmarked)    66
CCOc1c(C(=O)O)cnn1-c1cccc(-c2cccc(C)c2OCc2ccc3c(c2C)CCN(CC2CCOCC2)C3)n1    85

Numbers sourced from patent US8906904B2.
